What pIC50 was measured for each of the following?
- SYSTEM TESTED: MALT1-GS-Ub (6-His-hMALT-1 residues 339-715 fused to ubiquitin) (Homo sapiens)
- EXPERIMENTAL DETAILS: biochemical
Answers are plain numbers, as −log10 of the molar value.

As a guide, the following entries are already answered.
1) CC(=O)N1CC(F)(C(=O)N(C)[C@@H](c2ccc(NC3Cc4ccccc4C3(C)C)cc2)C(F)(F)F)C1 (single isomer, unassigned) [Example 44]	6.74
2) CN(C(=O)c1cc[nH]c(=O)c1)[C@@H](c1ccc(NC2Cc3ccccc3C2(C)C)cc1)C(F)(F)F (single isomer, unassigned) [Example 21]	6.70

Checklist item: pIC50 tested on MALT1-GS-Ub (6-His-hMALT-1 residues 339-715 fused to ubiquitin) (Homo sapiens), entry CNC(=O)N1CC(C(=O)N(C)[C@@H](c2ccc(NC3Cc4ccccc4C3(C)C)cc2)C(F)(F)F)C1 (single isomer, unassigned) [Example 73] , value? 6.38

* * *

What log10 of IC50 was measured for each of the following?
- SYSTEM TESTED: MALT1-GS-Ub (6-His-hMALT-1 residues 339-715 fused to ubiquitin) (Homo sapiens)
- EXPERIMENTAL DETAILS: biochemical
Hey, these are logged values: log10 of IC50, nM being the unit before logging.

1) COc1ccc2c(c1)CC(Nc1ccc([C@H](N(C)C(=O)C3CCS(=O)(=O)CC3)C(F)(F)F)cc1)C2 (single isomer, unassigned)	2.52
2) CN(C(=O)C1CCS(=O)(=O)CC1)[C@@H](c1ccc(NC2Cc3ccccc3C2(C)C)cn1)C(F)(F)F (single isomer, unassigned) [Example 77]	2.49
3) CC(=O)N1CC(C)(C(=O)N(C)[C@@H](c2ccc(NC3Cc4ccccc4C3(C)C)cc2)C(F)(F)F)C1 (single isomer, unassigned) [Example 42]	2.20
4) COCC(=O)N(C)[C@@H](c1ccc(NC2Cc3ccccc3C2(C)C)cc1)C(F)(F)F (single isomer, unassigned) [Example 28]	2.46
5) CN1CC(C(=O)N(C)C(c2ccc(NC3Cc4ccccc4C3(C)C)cn2)C(F)(F)F)C1 (single isomer, unassigned) [Example 91]	4.08

Next, consider the following molecule.
I'd like to know its log10 of IC50. The molecule in question is COC1c2ccccc2CC1Nc1ccc([C@H](N(C)C(=O)C2CCS(=O)(=O)CC2)C(F)(F)F)cc1 (single isomer, unassigned) 2.73

* * *

- SYSTEM TESTED: FL hMALT1 enzyme (Homo sapiens)
- EXPERIMENTAL DETAILS: biochemical
VALUE TYPE: IC50 (nM)
Answers are plain numbers, in nM.

1) CN(C(=O)[C@H]1CCC(=O)NC1)[C@@H](c1ccc(NC2Cc3ccc(Cl)c(C4CC4)c3C2)cn1)C(F)(F)F (single isomer, unassigned) [Example 329]	680

I'd like to know its IC50. The compound in question is CN1CC(C(=O)N(C)C(c2ccc(NC3Cc4ccccc4C3(C)C)cn2)C(F)(F)F)C1 (single isomer, unassigned) [Example 92] 280

* * *

- SYSTEM TESTED: MALT1-GS-Ub (6-His-hMALT-1 residues 339-715 fused to ubiquitin) (Homo sapiens, UniProt Q9UDY8);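 note: in vitro MALT1 protease assay: enzyme preincubated with compound 30 min at room temperature, then cleavage of fluorogenic Ac-LVSR-AMC substrate (100 µM) followed by fluorescence every 15 min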
- EXPERIMENTAL DETAILS: biochemical
What log10 of IC50 was measured for each of the following?
Hey, these are logged values: log10 of IC50, nM being the unit before logging.

As a guide, the following entries are already answered.
1) CN1CC(C(=O)N(C)C(c2ccc(NC3Cc4ccccc4C3(C)C)nc2)C(F)(F)F)C1 (single isomer, unassigned) [Example 95]	2.76
2) CN(C(=O)C1CN(S(C)(=O)=O)C1)[C@@H](c1ccc(NC2Cc3ccccc3C2(C)C)cc1)C(F)(F)F (single isomer, unassigned) [Example 68]	2.28
3) CN1CC(C(=O)N(C)C(c2ccc(NC3Cc4ccccc4C3(C)C)nc2)C(F)(F)F)C1 (single isomer, unassigned) [Example 94]	4.23

Please state log10 of IC50 for every compound in the list that follows.
1. CN(C(=O)C1CCS(=O)(=O)CC1)[C@@H](c1ccc(NC2Cc3ccc(Cl)cc3C2(C)C)cc1)C(F)(F)F (single isomer, unassigned) [Example 151]
2. CN(C(=O)C1CCS(=O)(=O)CC1)[C@@H](c1ccc(NC2Cc3ccc(Cl)cc3C2(C)C)cc1)C(F)(F)F (single isomer, unassigned) [Example 150]

1. 2.08
2. 2.18

I'd like to know its log10 of IC50. The compound in question is CC1c2ccccc2C(C)C1Nc1ccc([C@H](N(C)C(=O)C2CCS(=O)(=O)CC2)C(F)(F)F)cc1 (stereo partly drawn) 2.32

* * *

- SYSTEM TESTED: FL hMALT1 enzyme (Homo sapiens);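 note: Cell-free protease assay: enzyme preincubated with compound 30 min at room temperature, then cleavage of fluorogenic Ac-LVSR-AMC substrate (100 µM) tracked by fluorescence (ex 360/em 460 nm)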
- Sequence (Q9UDY8 1-824): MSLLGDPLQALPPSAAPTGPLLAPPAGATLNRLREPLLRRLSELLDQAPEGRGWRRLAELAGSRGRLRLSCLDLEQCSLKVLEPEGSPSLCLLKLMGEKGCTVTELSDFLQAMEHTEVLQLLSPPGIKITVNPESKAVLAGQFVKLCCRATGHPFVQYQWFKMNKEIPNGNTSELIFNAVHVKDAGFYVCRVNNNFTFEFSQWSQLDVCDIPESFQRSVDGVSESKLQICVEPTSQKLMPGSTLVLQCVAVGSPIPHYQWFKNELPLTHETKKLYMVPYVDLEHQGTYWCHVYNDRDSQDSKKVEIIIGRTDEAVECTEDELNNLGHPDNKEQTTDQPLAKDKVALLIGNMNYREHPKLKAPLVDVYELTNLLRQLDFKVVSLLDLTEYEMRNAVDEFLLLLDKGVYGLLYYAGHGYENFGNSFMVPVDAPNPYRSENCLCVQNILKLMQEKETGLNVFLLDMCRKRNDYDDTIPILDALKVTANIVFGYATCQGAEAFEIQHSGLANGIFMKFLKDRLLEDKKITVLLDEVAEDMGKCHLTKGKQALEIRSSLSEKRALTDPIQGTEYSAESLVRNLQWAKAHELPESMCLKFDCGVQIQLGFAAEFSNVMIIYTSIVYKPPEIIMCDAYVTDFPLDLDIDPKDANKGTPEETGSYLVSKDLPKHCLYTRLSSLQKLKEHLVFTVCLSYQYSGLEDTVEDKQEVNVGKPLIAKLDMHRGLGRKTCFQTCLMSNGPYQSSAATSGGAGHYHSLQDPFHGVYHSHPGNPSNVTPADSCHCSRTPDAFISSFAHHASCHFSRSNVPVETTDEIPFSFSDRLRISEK
- EXPERIMENTAL DETAILS: biochemical
Mark met only for IC50 values smaller than 100 nM; exact matches and larger values are not met.

1) CN(C(=O)C1CN2CCC1CC2)[C@@H](c1ccc(NC2Cc3ccccc3C2(C)C)nc1)C(F)(F)F (single isomer, unassigned) [Example 120]	not met
2) CN(C(=O)C1CC2(CCC(=O)N2)C1)[C@@H](c1ccc(NC2Cc3ccccc3C2(C)C)cn1)C(F)(F)F (single isomer, unassigned) [Example 229]	not met
3) CN(C(=O)C1CCN(S(C)(=O)=O)CC1)[C@@H](c1ccc(NC2Cc3ccc(Cl)c(Cl)c3C2)cn1)C(F)(F)F (single isomer, unassigned) [Example 326]	not met
4) CN(C(=O)C1CC2(CNC(=O)OC2)C1)[C@@H](c1ccc(NC2Cc3ccccc3C2(C)C)nc1)C(F)(F)F (single isomer, unassigned) [Example 174]	met
5) CN1CC(C(=O)N(C)C(c2ccc(NC3Cc4ccccc4C3(C)C)cn2)C(F)(F)F)C1 (single isomer, unassigned) [Example 90]	not met
6) CN(C(=O)[C@H]1CNC(=O)C1)[C@@H](c1ccc(NC2Cc3ccc(Cl)c(Cl)c3C2)nc1)C(F)(F)F (single isomer, unassigned) [Example 347]	met
7) CN(C(=O)C1CCNCC1)[C@@H](c1ccc(NC2Cc3ccccc3C2(C)C)cn1)C(F)(F)F (single isomer, unassigned) [Example 147]	not met
8) CN(C(=O)C1CN(C(=O)CO)C1)[C@@H](c1ccc(NC2Cc3ccc(Cl)c(Cl)c3C2)cn1)C(F)(F)F (single isomer, unassigned) [Example 379]	met
9) CN(C(=O)C12CC(NS(C)(=O)=O)(C1)C2)[C@@H](c1ccc(N[C@H]2Cc3ccccc3C2(C)C)cn1)C(F)(F)F	met
10) CN(C(=O)C1CCS(=O)(=O)CC1)[C@@H](c1ccc(NC2Cc3ccc(C(F)(F)F)cc3C2)cn1)C(F)(F)F (single isomer, unassigned) [Example 255]	not met

Regarding CN(C(=O)C1CCS(=O)(=O)CC1)[C@@H](c1ccc(NC2Cc3ccc(Br)cc3C2)cn1)C(F)(F)F (single isomer, unassigned) [Example 285] , kindly confirm whether its IC50 is beneath 100 nM. not met

Regarding COCC(=O)N(C)[C@@H](c1ccc(NC2Cc3ccccc3C2(C)C)cc1)C(F)(F)F (single isomer, unassigned) [Example 28] , kindly confirm whether its IC50 is beneath 100 nM. not met
